- TARGET OF ASSAY: GTPase KRas (G12D) and Son of Sevenless Homolog 1 (SOS) (Homo sapiens, UniProt P01116, G12D)
- Sequence (P01116 whole entry G12D): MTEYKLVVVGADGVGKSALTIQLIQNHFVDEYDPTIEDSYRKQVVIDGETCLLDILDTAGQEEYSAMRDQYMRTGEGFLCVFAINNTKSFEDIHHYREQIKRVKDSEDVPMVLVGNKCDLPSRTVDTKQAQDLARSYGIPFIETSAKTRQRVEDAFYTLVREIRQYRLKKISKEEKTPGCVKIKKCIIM
- Sequence (Q07889 whole entry, further chain): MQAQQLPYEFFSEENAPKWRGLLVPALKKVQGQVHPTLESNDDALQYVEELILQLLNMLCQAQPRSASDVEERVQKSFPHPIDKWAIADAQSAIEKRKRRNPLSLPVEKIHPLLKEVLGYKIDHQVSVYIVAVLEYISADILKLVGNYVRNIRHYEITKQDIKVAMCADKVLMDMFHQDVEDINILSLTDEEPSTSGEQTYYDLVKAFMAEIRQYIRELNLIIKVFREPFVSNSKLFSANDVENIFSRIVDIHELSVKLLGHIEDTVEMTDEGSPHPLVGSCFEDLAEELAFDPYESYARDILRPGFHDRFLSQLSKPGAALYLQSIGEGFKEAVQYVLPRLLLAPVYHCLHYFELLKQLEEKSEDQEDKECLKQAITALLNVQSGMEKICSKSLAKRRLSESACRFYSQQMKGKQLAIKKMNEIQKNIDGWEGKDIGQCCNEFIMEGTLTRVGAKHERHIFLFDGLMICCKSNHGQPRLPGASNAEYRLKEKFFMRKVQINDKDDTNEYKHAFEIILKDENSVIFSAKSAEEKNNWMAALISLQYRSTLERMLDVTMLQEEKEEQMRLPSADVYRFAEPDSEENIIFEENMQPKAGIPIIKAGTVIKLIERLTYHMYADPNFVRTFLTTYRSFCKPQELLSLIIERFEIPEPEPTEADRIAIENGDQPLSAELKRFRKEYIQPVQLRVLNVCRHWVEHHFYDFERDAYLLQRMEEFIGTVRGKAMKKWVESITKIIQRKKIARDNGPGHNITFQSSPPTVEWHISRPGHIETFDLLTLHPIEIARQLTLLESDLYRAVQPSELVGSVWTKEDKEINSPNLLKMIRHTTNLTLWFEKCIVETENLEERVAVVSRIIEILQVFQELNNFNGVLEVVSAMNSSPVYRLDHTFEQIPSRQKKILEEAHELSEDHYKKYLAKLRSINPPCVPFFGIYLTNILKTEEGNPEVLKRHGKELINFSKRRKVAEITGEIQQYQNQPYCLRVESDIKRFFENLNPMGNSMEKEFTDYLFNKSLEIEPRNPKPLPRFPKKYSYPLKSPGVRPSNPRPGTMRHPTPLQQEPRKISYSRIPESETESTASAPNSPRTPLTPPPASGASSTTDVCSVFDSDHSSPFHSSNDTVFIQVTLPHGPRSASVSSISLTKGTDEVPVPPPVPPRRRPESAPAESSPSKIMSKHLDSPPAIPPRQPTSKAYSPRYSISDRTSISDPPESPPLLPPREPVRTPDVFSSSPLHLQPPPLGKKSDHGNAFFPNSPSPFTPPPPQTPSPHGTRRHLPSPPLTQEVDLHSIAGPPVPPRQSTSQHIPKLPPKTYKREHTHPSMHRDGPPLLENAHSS
- ASSAY OVERVIEW: AlphaScreen Assay
Bridge positions count the residues as written; N and C are the ends. Square brackets hold non-standard residues; d marks the D form. Peptide text beside a SMILES is read from it. * marks the point of attachment. hPhe(3-F,4-CF3) = N[C@@H](CCc1ccc(C(F)(F)F)c(F)c1)C(=O)O; NMeCha = CN[C@@H](CC1CCCCC1)C(=O)O; cisHyp = O=C(O)[C@@H]1C[C@H](O)CN1; NMeD = CN[C@@H](CC(=O)O)C(=O)O; Benzyl(4-Cl) = Clc1ccc(C*)cc1; NMeL = CN[C@@H](CC(C)C)C(=O)O; Piperidide = C1CCN(*)CC1; Ac5c = NC1(C(=O)O)CCCC1; Sar = CNCC(=O)O
Measured IC50 values are reported for all entries that follow.
Show the value, then the unit it is measured in.

Which value of IC50 has been reported for CC[C@H](C)[C@@H]1NC(=O)[C@H](CC(C)C)N(C)C(=O)C[C@@H](C)NC(=O)[C@H](CC(C)C)N(C)C(=O)C(C)(C)NC(=O)[C@H](CC(C)C)N(C)C(=O)[C@H](CCc2cc(F)c(C(F)(F)F)c(F)c2)NC(=O)CN(C)C(=O)[C@H](C(=O)CC2CCCCC2)N(C)C(=O)CN(C)C(=O)CN(C)C1=O [US20240148821, Compound 119] in the records?
39 nM

What do you get for CC[C@H](C)[C@@H]1NC(=O)[C@H](CC(C)C)N(C)C(=O)C[C@@H](C(=O)N2CCCCC2)N(C)C(=O)[C@H](CC(C)C)N(C)C(=O)C2(CCCC2)NC(=O)[C@@H]2C[C@H](OCc3ccc(Cl)cc3)CN2C(=O)[C@H](CCc2ccc(C(F)(F)F)c(F)c2)NC(=O)CN(C)C(=O)[C@H](CC2CCCCC2)N(C)C(=O)CN(C)C(=O)CN(C)C1=O [US20240148821, Compound 2129] ([NMeL]I[Sar][Sar][NMeCha][Sar][hPhe(3-F,4-CF3)][cisHyp](Benzyl(4-Cl))[Ac5c][NMeL][NMeD]-Piperidide; lactam N-11) ?
46 nM

What do you get for CC[C@H](C)[C@@H]1NC(=O)[C@H](CCC2CCC2)N(C)C(=O)C[C@@H](C)NC(=O)[C@H](C(C)C)N(C)C(=O)C2(CCCC2)NC(=O)C2CCCN2C(=O)[C@H](CCc2ccc(C(F)(F)F)c(Cl)c2)NC(=O)CN(C)C(=O)[C@H](CC2CCCCC2)N(C)C(=O)CN(C)C(=O)CN(C)C1=O (stereo partly drawn) [US20240148821, Compound 230] ?
39 nM
